method_notes: soluble fraction after stress (log2 fold change); higher = more stays soluble; pooled small domains, quantitative proteomics
condition_label: stress: 50 degC
readout: soluble fraction (log2)

Reference set (5 entries):
* HMKLLLSANISKLRKKYSMTQEQLAEALGVTFASVSKWERGVATPELKLIAEMADMFEVSIDALIGYEFRN | -1.39
* HMSSDLSNVVKIIDTLKHKKGALLPILHQIQREIGYIPLKTIDTIAKKLQQTPAEIHGVISFYHQFRTS | 0.0942
* HMQRNLILKLDTDQPEIYKKLESIFVEINGLLVPFFIEKIIWSKQDSLNILFKNSSEALVEQLIGKNVFLP | 0.0989
* HMAVENTGLSKRELEILQMMARGMSNQEIGDALFISLSTVKTHVASIFSKLQAVRRTQAVGIAKSLKII | -0.917
* HMPQISQDDLMEAGLIVGKEAKQRRIKLGEILGIGYVNAKQLPKRLQLFQVAKSDFEQAVQQIDG | -0.0431

Dear colleague, I am looking for the recorded soluble fraction (log2) of the following sequence: `HMYSFPHQLLKLRTEKQLSQAELATRLFVSRQAVSKWENGDAEPSIDKLILLAKVFNVSLDRLILGT`
-1.43

Quick one: soluble fraction (log2) of `HMHDPLATLTPREHEVMSLMAEGRTNAAIAQALVIGTGAVEKNVTSIFQKLGLDDSGTDHRRVLAVLAWLQ` ?
-2.14

Find the recorded soluble fraction (log2) belonging to `HMYLELVTKEGGSFDEPDYWGRRKLAYEIAGKTEGNYVVVKYTAEPATSDELDRVLNLNESVIRTKILRK` and report it.
0.0508

###

method_notes: soluble fraction after stress (log2 fold change); higher = more stays soluble; pooled small domains, quantitative proteomics
condition_label: stress: 50 degC
readout: soluble fraction (log2)
// response body must contain only the number

Solved cases (3 shown):
* HMLKHEEIQEYIKEQINSGTWKPKAKLPSLRDMSELFSTSIGTVLTAYSALEKKHIIYSIPRSGYYVLG | -1.11
* HMKPLAQQVNDYLAATRTSIATLANEIPGYSRPTISRYLAGKYDGDITTIEKLLAEWLAQRTG | -0.354
* HMEPKQIEVPNLVGISSAAARQTLSALGLHAVVKDSIWSETERIDTVLEQNPAGGALIKPEGTVYLRVSR | 0.033

For the next question, use this sequence.
Would you kindly share the measured soluble fraction (log2) for `HMPELTERELEVLLLTARGLPSSEAARLLFITRRTVAAHLTSIYGKLGARNKTEAVLAALKRGIIMLDQIG` ?
-4

###

Each entry below lists one item and its recorded soluble fraction (log2) value.
method_notes: soluble fraction after stress (log2 fold change); higher = more stays soluble; pooled small domains, quantitative proteomics
condition_label: stress: 50 degC
Could you keep your reply to the number by itself?

Recorded results for 3 sequences are shown here.
• HMAMDYYAIGQRIRKFRKAHDWSQEELAEKVEISTTHMSHIETGSTKLSLPVLVSLANVLDVRTDDLLF = -3.88
• HMEPDEESVRLKEEILSRIDYWHTTMPYMGTRKLAAKLRTEGYAVGRKLVRTYMREMGIHAVYP = -0.132
• HMNVDSLIGQTARVIVDINNNDSIGYALVGGQEWTARAENDNDIIPKDTLVEIVGVSGVKLIVRRKE = -0.044

Name the recorded soluble fraction (log2) for `HMHHIDYKQLRRINPVAARRAVLDYLESTGGNITKTAQVFSINRSVVYDILKKQASGDLSDRLRIP` .
-1.32

Record request: soluble fraction (log2) value, item `HMKVELSENEKIIYDLLSNQEVLLSEIKDKAELSNKAWDKSTKSLRKLGLVIVEKKDDNIYISKS`
-0.362

Find the recorded soluble fraction (log2) belonging to `HMQTMTAGERREAILRELEQAQGPVSASALAKRFHVSRQAVVGDVAMLRALNSPIAATPRGYVLTR` and report it.
-0.0845

Given the entry `HMLIELKIPSEWAGKSLHTLNLRQNYNVNVIGFRDEKSGKLNTHFDPSKKLPDEGIILVVADNRTLEKF` , report its measured soluble fraction (log2).
-0.837

State the recorded soluble fraction (log2) for this entry: `HMTEALEFTVEDLRMAGLVNSSFSRRRRELFSEKLGIGYGNGKSLLKKLNGYGITREEFNGAIQSLSD`
-0.747

State the recorded soluble fraction (log2) for this entry: `HMGDWEKALAQFAAHRLANGSTAFLDEMYPIFERILLQAALNKTGGRKIEAAELLGWGRNTLTRKLKELGF`
-2.2

State the recorded soluble fraction (log2) for this entry: `HMFFAGLSPEAARTLDSLPLHSWSSVEQIARQAGLNIETVRKELGLLELSGIALSRQGRFRRA`
-0.549

GET /values?readout=soluble fraction (log2)&item= `HMLSVKEQTYQIIKEKILNQEYPAGARININELAEELGISNSPIREALSLLEQQGLVISNRSSGATVT`
0.00507

// soluble fraction (log2) lookup, key: `HMVRSLESESVYDRQRAYEIAYQLRTEERPYSFIATQLNKAGLRPQKAARYEWYSVQELLRSA`
-0.956

GET /values?readout=soluble fraction (log2)&item= `HMATPEINNLGRLRNAINQSNVNWHQIIKRLQNEYPNNWRQILIAIDRHDLLFRYDVENYIKYG`
-1.56

Recorded soluble fraction (log2) for `HMENMSFGTKLYTWLYGKLVGSDEIGNKYYTNINDPSDLNAKRWVIFNGEIEASKIPPHWHAWLHKSIDK` , please?
-0.646

Sample `HMGASVGEVESVKTASEIYTAAAGKIVAVNDAVAKDPSLVNSDPYGNGWLVKLEIADLSAINA` — what was its soluble fraction (log2)?
0.000115

Which soluble fraction (log2) value belongs to `HMNAMKPVLTVSLGVHTDSLSRRLNEEGIIYRWQQAASEQLLLVDSESSSERIAELIHDWRLEQSSS` ?
-0.0169

Reported soluble fraction (log2) for `HMKTPETSEYVVQAGDSLRRILTERYGAKEQDLPYLYRQFRLLNPKVSSLDNIHAGTKVRIPLVASVL` : what is it?
0.132
